Record type: Ki measurement. Applies to: Protein kinase C alpha type (Mus musculus, UniProt P20444)
One number for each entry, in nM.

Worked cases, answers included:
[
  {
    "molecule": "O=C1OC(CO)(COC(=O)C(c2ccccc2)c2ccccc2)C/C1=C/c1ccc(Cl)cc1 (racemic)",
    "meas-value": 73.4
  },
  {
    "molecule": "CCCCCCC(=O)OCC1(CO)C/C(=C/C(CC)CCCC)C(=O)O1 (racemic)",
    "meas-value": 74.5
  }
]

Could you share which Ki value was measured for O=C1OC(CO)(COC(=O)C2CCCCC2)C/C1=C/C1CCCCC1 (racemic) ?
89.4

====

- study-system: Protein kinase C alpha type (Mus musculus, UniProt P20444)
1.0 if Ki is below 0.1 µM. 0.0 if not; exact matches included in 0.0.

Some solved cases for reference:
[
  {
    "molecule": "CCC(C(=O)OCC1(CO)C/C(=C\\c2ccc(-c3ccc(C(F)(F)F)cc3)cc2)C(=O)O1)c1ccccc1 (racemic; form 2)",
    "label-class": 1.0
  },
  {
    "molecule": "CC(C)C(=O)OCC1(CO)C/C(=C/c2ccc(Cl)c(F)c2)C(=O)O1 (racemic)",
    "label-class": 1.0
  },
  {
    "molecule": "CC(C)(C)C(=O)OCC1(CO)C/C(=C/c2ccc(F)cc2)C(=O)O1 (racemic)",
    "label-class": 1.0
  },
  {
    "molecule": "CCCCC(CC)C(=O)OCC1(CO)C/C(=C/c2ccc(Br)cc2)C(=O)O1 (racemic)",
    "label-class": 1.0
  },
  {
    "molecule": "CC(C)(C)C(=O)OCC1(CO)C/C(=C/c2ccccc2C(F)(F)F)C(=O)O1 (racemic)",
    "label-class": 1.0
  }
]

Identify whether the molecule CCCCC(CC)C(=O)OCC1(CO)C/C(=C\c2ccc([N+](=O)[O-])cc2)C(=O)O1 (racemic) records Ki below 0.1 µM.
1.0

For CN(C)c1ccc(/C=C2\CC(CO)(COC(=O)c3ccc([N+](=O)[O-])cc3)OC2=O)cc1 (racemic; form 1) then?
0.0

For CC(C)(C)C(=O)OCC1(CO)C/C(=C\c2ccc(Cl)c(F)c2)C(=O)O1 (racemic; form 1) then?
1.0

For CC(C)(C)C(=O)OCC1(CO)C/C(=C/c2ccc(C(F)(F)F)cc2)C(=O)O1 (racemic) then?
1.0

For O=C1OC(CO)(COC(=O)c2ccc([N+](=O)[O-])cc2)C/C1=C/c1ccc(C(F)(F)F)cc1 (racemic) then?
0.0

For CCCCCCC(=O)OCC1(CO)C/C(=C/c2ccc(C(F)(F)F)cc2)C(=O)O1 (racemic) then?
1.0

For CCCC(CCC)C(=O)OCC1(CO)C/C(=C/c2cc(C(F)(F)F)cc(C(F)(F)F)c2)C(=O)O1 (racemic) then?
1.0

For CCCCC(CC)C(=O)OCC1(CO)C/C(=C\c2ccc(Cl)c(F)c2)C(=O)O1 (racemic; form 1) then?
1.0

For CCCCC(/C=C1/CC(CO)(COC(=O)c2c(C(C)C)cc(C(C)C)cc2C(C)C)OC1=O)CC (racemic) then?
0.0

====

Record type: Ki measurement. Applies to: Protein kinase C alpha type (Mus musculus, UniProt P20444)
One number for each entry, in nM.

[
  {
    "compound": "O=C1OC(CO)(COC(=O)C(c2ccccc2)c2ccccc2)C/C1=C/c1ccc(OC(F)(F)F)cc1 (racemic)",
    "study-system": "Protein kinase C alpha type (Mus musculus, UniProt P20444)",
    "Ki, nM": 97.6
  }
]

Each compound below has a reported value. Please supply its Ki.
1. CC(C)C(=O)OCC1(CO)C/C(=C/c2ccc(Br)cc2)C(=O)O1 (racemic)
2. COc1ccc(/C=C2\CC(CO)(COC(=O)c3ccc(OC)cc3)OC2=O)cc1 (racemic; form 1)

1: 72.6; 2: 129

====

Record type: Ki measurement. Applies to: UniProt:P20444
Answers are plain numbers, in nM.

Worked cases, answers included:
[
  {
    "compound": "O=C1OC(CO)(COC(=O)c2ccc(C(F)(F)F)cc2)C/C1=C/c1ccc(C(F)(F)F)cc1 (racemic)",
    "study-system": "UniProt:P20444",
    "meas-value": 72.4
  },
  {
    "compound": "O=C1OC(CO)(COC(=O)C(c2ccccc2)c2ccccc2)C/C1=C/c1ccc(F)cc1 (racemic)",
    "study-system": "UniProt:P20444",
    "meas-value": 81.8
  }
]

# evaluate next
Could you share which Ki value was measured for O=C1OC(CO)(COC(=O)C(c2ccccc2)c2ccccc2)C/C1=C/c1ccc(-c2ccc(C(F)(F)F)cc2)cc1 (racemic) ?
111

====

Record type: Ki measurement. Applies to: Protein kinase C alpha type (Mus musculus)
Numbers only, in nM.

Worked cases, answers included:
[
  {
    "compound": "COc1ccc(C(=O)OCC2(CO)C/C(=C/c3ccc(C(F)(F)F)cc3)C(=O)O2)cc1 (racemic)",
    "meas-value": 86.5
  },
  {
    "compound": "O=C1OC(CO)(COC(=O)C(c2ccccc2)c2ccccc2)C/C1=C/c1ccccc1C(F)(F)F (racemic)",
    "meas-value": 133
  },
  {
    "compound": "O=C1OC(CO)(COC(=O)c2ccc([N+](=O)[O-])cc2)C/C1=C\\c1ccc([N+](=O)[O-])cc1 (racemic; form 1)",
    "meas-value": 660
  },
  {
    "compound": "CC(C)(C)C(=O)OCC1(CO)C/C(=C\\c2ccc(F)c(Cl)c2)C(=O)O1 (racemic; form 2)",
    "meas-value": 20.5
  }
]

# evaluate next
Record lookup: for Protein kinase C alpha type (Mus musculus), what Ki belongs to CC(C)(C)C(=O)OCC1(CO)C/C(=C/c2ccc(OC(F)(F)F)cc2)C(=O)O1 (racemic) ?
22.5

====

Assign Ki to each entry below.
- study-system: Protein kinase C alpha type (Mus musculus)
Numbers only, in µM.

Worked cases, answers included:
[
  {
    "compound": "O=C1OC(CO)(COC(=O)c2ccc(C(F)(F)F)cc2)C/C1=C/c1ccccc1 (racemic)",
    "unit-abbreviation": "µM",
    "Ki": 0.103
  },
  {
    "compound": "CC(CC(=O)OCC1(CO)C/C(=C/c2ccc(-c3ccc(C(F)(F)F)cc3)cc2)C(=O)O1)CC(C)(C)C (racemic)",
    "unit-abbreviation": "µM",
    "Ki": 0.0497
  }
]

Each compound below has a reported value. Please supply its Ki.
1. COc1ccc(/C=C2\CC(CO)(COC(=O)c3c(C(C)C)cc(C(C)C)cc3C(C)C)OC2=O)cc1 (racemic; form 2)
2. CN(C)c1ccc(C(=O)OCC2(CO)C/C(=C/c3ccccc3)C(=O)O2)cc1 (racemic)
3. CC(C)(C)CC(=O)OCC1(CO)C/C(=C/c2ccc(Cl)cc2)C(=O)O1 (racemic)
4. O=C1OC(CO)(COC(=O)c2ccc([N+](=O)[O-])cc2)C/C1=C\c1ccc([N+](=O)[O-])cc1 (racemic; form 2)
5. CC(CC(=O)OCC1(CO)C/C(=C/c2ccc(C(F)(F)F)cc2)C(=O)O1)CC(C)(C)C (racemic)

[0.197, 0.251, 0.0265, 0.127, 0.0184]
